# credit: ChEMBL document CHEMBL1961873

- tested.target: Serine/threonine-protein kinase PAK 5 (Homo sapiens) (UniProt Q9P286);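 further: values are mean percent inhibition of PAK5 from a kinase inhibitor set screen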
- Sequence (Q9P286 whole entry, looked up): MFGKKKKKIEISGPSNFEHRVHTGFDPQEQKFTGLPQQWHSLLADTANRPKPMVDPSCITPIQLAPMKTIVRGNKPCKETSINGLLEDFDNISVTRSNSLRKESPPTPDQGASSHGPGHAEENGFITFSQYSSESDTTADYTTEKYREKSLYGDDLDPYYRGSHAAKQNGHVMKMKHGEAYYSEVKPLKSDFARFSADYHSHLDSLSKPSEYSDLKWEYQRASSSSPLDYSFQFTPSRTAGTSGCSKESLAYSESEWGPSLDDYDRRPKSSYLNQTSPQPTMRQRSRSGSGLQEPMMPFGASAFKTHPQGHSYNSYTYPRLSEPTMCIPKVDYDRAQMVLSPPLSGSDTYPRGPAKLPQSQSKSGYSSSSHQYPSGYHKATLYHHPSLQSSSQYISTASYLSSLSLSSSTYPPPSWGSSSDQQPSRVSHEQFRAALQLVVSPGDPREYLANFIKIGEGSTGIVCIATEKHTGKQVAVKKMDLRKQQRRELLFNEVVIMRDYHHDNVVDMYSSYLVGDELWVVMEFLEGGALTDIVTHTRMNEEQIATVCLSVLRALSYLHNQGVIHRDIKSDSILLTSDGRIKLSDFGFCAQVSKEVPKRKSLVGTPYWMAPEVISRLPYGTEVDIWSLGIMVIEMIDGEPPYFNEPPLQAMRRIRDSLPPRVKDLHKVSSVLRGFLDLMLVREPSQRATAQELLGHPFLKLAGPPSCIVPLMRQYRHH
- measurement.parameters: at 0.1 µM
// reported inhibition for each item listed
Report the figure in % without appending any unit label.

                              smiles_string  readout_value
0  CC(C)c1ccc2c(c1)NC(=O)/C2=N/Nc1ccc(S(N)(=O)=O)cc1          -6.19
1  COc1cc(Nc2nccc(-c3cnn4ncccc34)n2)cc(OC)c1          -6.63
2  Cc1cc(Cl)cc2c1NC(=O)C2=NNc1ccc(S(N)(=O)=O)cc1          -4.18

Then there is this molecule:
inhibition reading for CC(C)c1ccc(Nc2nccc(-c3cnn4ncccc34)n2)cc1 : -3.7
